biological target: RPE65 (bovine RPE microsomes as the enzyme source) (Bos taurus, UniProt Q28175)
Sequence (Q28175 whole entry): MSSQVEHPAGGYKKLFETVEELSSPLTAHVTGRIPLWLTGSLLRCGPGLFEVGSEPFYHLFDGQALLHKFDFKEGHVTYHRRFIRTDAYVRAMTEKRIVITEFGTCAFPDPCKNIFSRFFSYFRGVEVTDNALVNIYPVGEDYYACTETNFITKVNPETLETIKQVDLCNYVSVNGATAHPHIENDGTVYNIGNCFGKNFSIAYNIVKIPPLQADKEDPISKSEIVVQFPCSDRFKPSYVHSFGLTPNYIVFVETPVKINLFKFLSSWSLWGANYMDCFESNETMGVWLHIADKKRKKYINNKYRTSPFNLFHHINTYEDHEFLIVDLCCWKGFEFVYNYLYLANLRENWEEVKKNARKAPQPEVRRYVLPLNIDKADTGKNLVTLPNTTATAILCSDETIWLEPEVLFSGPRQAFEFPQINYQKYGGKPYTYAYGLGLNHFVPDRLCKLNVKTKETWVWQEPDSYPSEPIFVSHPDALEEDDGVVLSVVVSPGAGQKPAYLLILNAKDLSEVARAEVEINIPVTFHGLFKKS
pIC50: −log10 of the molar value.
quantity measured: pIC50

compound smiles: CC1=C(COc2cccc([C@H](O)CCN)c2)C(C)(C)CCC1
result number: 6.40
